- Tested on: OVCAR-8 ovarian
- ASSAY_METHOD_TEXT: NCI-60 one-dose screen, 48 h (100 = growth as untreated, 0 = no growth, -100 = all killed)
- CONDITION: 10 µM
About 83,000 compounds went through this panel and 20% of them were active in at least one assay; those are over-represented in the sample as a whole.
Where growth equals or exceeds 20%, the correct label is Satisfied; where it does not, the label is Not satisfied.

| COMPOUND | TGT | CATEGORY_LABEL |
| --- | --- | --- |
| Cc1cc(C(C)(C)c2ccc(O)c(C)c2)ccc1O | OVCAR-8 ovarian | Satisfied |
| C[C@@H]1C[C@@H]([C@H](O)CC2CC(=O)NC(=O)C2)C(=O)[C@@H](C)C1 | OVCAR-8 ovarian | Not satisfied |
| C#CC1(O)CCC(C(C)(C)C)CC1 (stereo unspecified) | OVCAR-8 ovarian | Satisfied |
| O=[N+]([O-])/C=C/c1ccc(Cl)cc1[N+](=O)[O-] | OVCAR-8 ovarian | Not satisfied |
| COc1ccccc1[As]=[As]c1ccccc1OC (stereo unspecified) | OVCAR-8 ovarian | Not satisfied |
| O=[N+]([O-])c1ccc(Br)c([N+](=O)[O-])c1 | OVCAR-8 ovarian | Satisfied |

---

- Tested on: RPMI-8226 leukemia
- ASSAY_METHOD_TEXT: NCI-60 one-dose screen, 48 h (100 = growth as untreated, 0 = no growth, -100 = all killed)
- CONDITION: 10 µM
This is part of a sample that, as a whole, favours compounds with a hit. Of some 83,000 tested, about 20% had one in any assay.
Please use the following growth ranges when assigning a class: band 1 = under -10%, band 2 = from -10% up to 90%, band 3 = 90% and over

| MOLECULE | TGT | CATEGORY_LABEL |
| --- | --- | --- |
| O=[N+]([O-])c1ccc(Br)c([N+](=O)[O-])c1 | RPMI-8226 leukemia | band 3 |
| O=C(CBr)Nc1ccc(Cl)cc1 | RPMI-8226 leukemia | band 2 |
| COc1cc(/C=C/[N+](=O)[O-])cc(Br)c1OC | RPMI-8226 leukemia | band 1 |
| [Cl][Hg][c]1ccc2ccccc2c1 | RPMI-8226 leukemia | band 1 |
| COC1CC2C=C(C)/C=C/C=C/C(=O)NC(c3ccccc3)C/C=C/CCC(O)CC(=O)C2=C1O (stereo not given) | RPMI-8226 leukemia | band 1 |
| COc1ccccc1[As]=[As]c1ccccc1OC (stereo not given) | RPMI-8226 leukemia | band 1 |
| C[C@]12CC[C@H]3[C@@H](CCC4=CC(=O)CC[C@@H]43)[C@@H]1CC[C@@H]2OC(=O)N(CCCl)N=O | RPMI-8226 leukemia | band 2 |
| O=S(=O)(F)c1ccc(Cl)cc1 | RPMI-8226 leukemia | band 3 |
| Cc1cc(C)c(C[N+](C)(C)C)c(C)c1C | RPMI-8226 leukemia | band 1 |
| O=[N+]([O-])/C=C/c1ccc(Cl)cc1[N+](=O)[O-] | RPMI-8226 leukemia | band 1 |
| CC(=O)[O][Hg][c]1c(C)c(C)cc(C)c1C | RPMI-8226 leukemia | band 2 |
| N#CCc1ccccc1 | RPMI-8226 leukemia | band 3 |
| O=[N+]([O-])c1ccc(N(CCO)CCO)c2c1no[n+]2[O-] | RPMI-8226 leukemia | band 1 |
| COc1cc2c(c(OC)c1OC)-c1ccc(O)c(=O)cc1[C@@H](NC(C)=O)CC2 | RPMI-8226 leukemia | band 2 |
| S=C=NCCc1ccccc1 | RPMI-8226 leukemia | band 1 |
| COc1ccc2c(ccc3oc([N+](=O)[O-])cc32)c1 | RPMI-8226 leukemia | band 2 |
| CC/C(=C/c1ccc(OC)cc1)[N+](=O)[O-] | RPMI-8226 leukemia | band 2 |
| [O-][n+]1ccccc1S | RPMI-8226 leukemia | band 2 |
| CC[C@@H](C)[C@@H]1NC(=O)C(NC(=O)C(CC(C)C)N(C)C(=O)C2CCCN2C(=O)C(C)O)C(C)OC(=O)C(Cc2ccc(OC)cc2)N(C)C(=O)C2CCCN2C(=O)C(CC(C)C)NC(=O)C(C)C(=O)C(C(C)C)OC(=O)C[C@H]1O (stereo not given in full) | RPMI-8226 leukemia | band 1 |
| CN(C)CC1(N)C(=O)NC(=O)NC1=O | RPMI-8226 leukemia | band 3 |
| CC(=O)Nc1c2sscc-2n(C)c1=O | RPMI-8226 leukemia | band 1 |
| Cc1cc(C(C)(C)c2ccc(O)c(C)c2)ccc1O | RPMI-8226 leukemia | band 3 |
| CC12OOC(c3ccccc31)c1c2ccc2ccccc12 (stereo not given) | RPMI-8226 leukemia | band 1 |
| COC(C(=O)C(O)C(C)O)C1Cc2cc3cc(OC4CC(OC(C)=O)C(OC5CC(O)C(OC)C(C)O5)C(C)O4)cc(O)c3c(O)c2C(=O)C1OC1CC(OC2CC(OC3CC(C)(O)C(OC(=O)C(C)C)C(C)O3)C(O)C(C)O2)C(O)C(C)O1 (stereo not given) | RPMI-8226 leukemia | band 1 |
| O=C(CBr)Nc1ccccc1 | RPMI-8226 leukemia | band 3 |
| NC(=O)c1cc([N+](=O)[O-])c(Cl)c([N+](=O)[O-])c1Cl | RPMI-8226 leukemia | band 2 |
| Oc1c(I)cc(I)cc1I | RPMI-8226 leukemia | band 3 |
| COc1ccc(/C=C(\C)[N+](=O)[O-])cc1OC | RPMI-8226 leukemia | band 1 |
| CC(C)(C)OOC(=O)/C=C\C(=O)OOC(C)(C)C | RPMI-8226 leukemia | band 3 |
| C#CC1(O)CCC(C(C)(C)C)CC1 (stereo not given) | RPMI-8226 leukemia | band 3 |
| CC(C)C1(NC(=O)C2CC3c4cccc5[nH]cc(c45)CC3N(C)C2)OC2(O)C3CCCN3C(=O)C(Cc3ccccc3)N2C1=O (stereo not given) | RPMI-8226 leukemia | band 3 |
| CCOP(=O)(OCC)/C(C#N)=C/c1ccc(Br)cc1 | RPMI-8226 leukemia | band 2 |
| O=[N+]([O-])c1cc[n+]([O-])c2ccccc12 | RPMI-8226 leukemia | band 2 |
| COc1cc(/C=C(/C)[N+](=O)[O-])ccc1O | RPMI-8226 leukemia | band 1 |
| COc1cc([N+](=O)[O-])c2ncccc2c1[N+](=O)[O-] | RPMI-8226 leukemia | band 2 |
| COC12C(COC(N)=O)C3=C(C(=O)C(C)=C(N)C3=O)N1CC1C2N1C (stereo not given) | RPMI-8226 leukemia | band 2 |

---

We begin with a simple list: items and their reported growth.
- Test system: HOP-92 NSCLC
- ASSAY_METHOD_TEXT: NCI-60 one-dose screen, 48 h (100 = growth as untreated, 0 = no growth, -100 = all killed)
- CONDITION: 10 µM
This is part of a sample that, as a whole, favours compounds with a hit. Of some 83,000 tested, about 20% had one in any assay. Activity calls are given as the source filed them. The calls were made as follows: active = growth percent below 10; inactive = the rest.
MEASUREMENT_TYPE: growth

| COMPOUND | RESULT |
| --- | --- |
| O=C(CBr)Nc1ccc(Cl)cc1 | 91.9% (inactive) |
| O=S(=O)(F)c1ccc(Cl)cc1 | 86.8% (inactive) |
| O=[N+]([O-])c1ccc(Br)c([N+](=O)[O-])c1 | 109% (inactive) |
| COc1cc2c(cc1OC)C13CCN4CC5=CCOC6CC(=O)N2C1C6C5CC43 (configuration not stated) | 87.4% (inactive) |
| COc1ccc2c(ccc3oc([N+](=O)[O-])cc32)c1 | 10.8% (inactive) |
| C[C@]12CC[C@H]3[C@@H](CCC4=CC(=O)CC[C@@H]43)[C@@H]1CC[C@@H]2OC(=O)N(CCCl)N=O | -11% (active) |
| NC(=O)c1cc([N+](=O)[O-])c(Cl)c([N+](=O)[O-])c1Cl | -52.2% (active) |
| O=C1C(=O)c2ccccc2-c2ccccc21 | -87.7% (active) |
| C=NCC#N | 97.6% (inactive) |
| O=[N+]([O-])c1cc[n+]([O-])c2ccccc12 | -41.6% (active) |
| O=C1CCC(=O)N1SC(Cl)(Cl)Cl | 105% (inactive) |
| CN(CCCl)c1ccc(/C=C/C2=[N+](C)c3ccccc3C2(C)C)cc1 | 31.1% (inactive) |
| [O-][n+]1ccccc1S | 97.1% (inactive) |
| CC[C@@]1(O)C[C@H](OC2CC(N(C)C)C(O)C(C)O2)c2c(cc3c(c2O)C(=O)c2c(O)ccc(O)c2C3=O)[C@H]1C(=O)OC (some centres not stated) | -68.9% (active) |
| C#CC1(O)CCC(C(C)(C)C)CC1 (configuration not stated) | 87.9% (inactive) |
| Oc1c(I)cc(I)cc1I | 106% (inactive) |
| O=C1C=Cc2ccccc2C1=O | 93.7% (inactive) |
| CC(Cc1ccc2c(c1)OCO2)NN (configuration not stated) | 76.6% (inactive) |
| Oc1c(Cl)cc(Cl)c2ccccc12.[Cu+2] | 104% (inactive) |
| Cc1ccc(C(=O)C2C(c3ccccc3)N2C2CCCCC2)cc1 (configuration not stated) | 78.1% (inactive) |
| N#CCc1ccccc1 | 82.2% (inactive) |
| S=C=NCCc1ccccc1 | 56.5% (inactive) |
| Cc1ccc(NC(=O)CBr)cc1 | 96% (inactive) |
| [Cl][Hg][c]1ccc(Cl)s1 | -70% (active) |
| [Cl][Sn]([c]1ccccc1)([c]1ccccc1)[c]1ccccc1 | -85.6% (active) |
| O=[N+]([O-])/C=C\c1ccc2c(c1)OCO2 | 79.3% (inactive) |
| COc1ccccc1[As]=[As]c1ccccc1OC (configuration not stated) | -85.1% (active) |

FYI, the data here is from PubChem BioAssay (NCI).
